Molecular target: Trypsin (Homo sapiens, UniProt P07477+P07478+P35030)
Test: Inhibition of trypsin (unknown origin) assessed as reduction in conversion of N-benzoyl-L-arginine ethyl ester hydrochloride to N-benzoyl-L-arginine incubated for 5 mins measured for 30 secs by spectrophotometric method
Assay type: protein assay
*1 amine or outer side, *2 acyl side, *3 side chain or, on linkers, in order; H or OH if unused. Where a SMILES comes first, the peptide text is derived from it. Bridges are numbered along the chain shown (N, C = ends). [ ]: non-standard residue; d: D form. The star is where a group is joined. Ahp(3S,6R)alloIle = CC[C@@H](C)[C@@H](C(=O)[*:2])N1C(=O)[C@@H](N[*:1])CC[C@H]1O; Propanoyl(2R-OMe,3-OSO3H) = CO[C@H](COS(=O)(=O)O)C(=O)*; NMeTyr(3-Br,OMe) = CN[C@@H](Cc1ccc(OC)c(Br)c1)C(=O)O

[
  {
    "molecule": "CC[C@@H](C)[C@H]1C(=O)N(C)[C@@H](Cc2ccc(OC)c(Br)c2)C(=O)N[C@@H]([C@@H](C)CC)C(=O)O[C@H](C)[C@H](NC(=O)[C@H](NC(=O)[C@@H](COS(=O)(=O)O)OC)C(C)C)C(=O)N[C@@H](CCCNC(=N)N)C(=O)N[C@H]2CC[C@@H](O)N1C2=O",
    "IC50": "150 nM"
  },
  {
    "molecule": "CC[C@@H](C)[C@H]1C(=O)N(C)[C@@H](Cc2ccc(OC)c(Br)c2)C(=O)N[C@@H]([C@@H](C)CC)C(=O)O[C@H](C)[C@H](NC(=O)[C@@H](NC(=O)[C@@H](COS(=O)(=O)O)OC)C(C)C)C(=O)N[C@@H](CCCCN)C(=O)N[C@H]2CC[C@@H](O)N1C2=O",
    "IC50": "72 nM"
  },
  {
    "molecule": "CC[C@@H](C)[C@H]1C(=O)N(C)[C@@H](Cc2ccc(OC)c(Br)c2)C(=O)N[C@@H]([C@@H](C)CC)C(=O)O[C@H](C)[C@H](NC(=O)[C@H](NC(=O)[C@H](O)COS(=O)(=O)O)C(C)C)C(=O)N[C@@H](CCCCN)C(=O)N[C@H]2CC[C@@H](O)N1C2=O",
    "IC50": "160 nM"
  },
  {
    "molecule": "CC[C@@H](C)[C@H]1C(=O)N(C)[C@@H](Cc2ccc(OC)c(Br)c2)C(=O)N[C@@H]([C@@H](C)CC)C(=O)O[C@H](C)[C@H](NC(=O)[C@@H](NC(=O)[C@@H](COS(=O)(=O)O)OC)[C@@H](C)CC)C(=O)N[C@@H](CCCCN)C(=O)N[C@H]2CC[C@@H](O)N1C2=O ({Propanoyl(2R-OMe,3-OSO3H)}-ITK[Ahp(3S,6R)alloIle][NMeTyr(3-Br,OMe)]I; ester 2-C)",
    "IC50": "1000 nM"
  },
  {
    "molecule": "CC[C@@H](C)[C@H]1C(=O)N(C)[C@@H](Cc2ccc(OC)c(Br)c2)C(=O)N[C@@H]([C@@H](C)CC)C(=O)O[C@H](C)[C@H](NC(=O)[C@H](NC(=O)[C@@H](COS(=O)(=O)O)OC)C(C)C)C(=O)N[C@@H](CCCCN)C(=O)N[C@H]2CC[C@@H](O)N1C2=O",
    "IC50": "190 nM"
  }
]

----------
Entries and their measured Ratio IC50 follow.
Organism: Homo sapiens
Test: Selectivity ratio of IC50 for chymotrypsin (unknown origin) to IC50 for trypsin (unknown origin)
*1 amine or outer side, *2 acyl side, *3 side chain or, on linkers, in order; H or OH if unused. Where a SMILES comes first, the peptide text is derived from it. Bridges are numbered along the chain shown (N, C = ends). [ ]: non-standard residue; d: D form. The star is where a group is joined. Ahp(3S,6R)alloIle = CC[C@@H](C)[C@@H](C(=O)[*:2])N1C(=O)[C@@H](N[*:1])CC[C@H]1O; Propanoyl(2R-OMe,3-OSO3H) = CO[C@H](COS(=O)(=O)O)C(=O)*; NMeTyr(3-Br,OMe) = CN[C@@H](Cc1ccc(OC)c(Br)c1)C(=O)O

[
  {
    "compound": "CC[C@@H](C)[C@H]1C(=O)N(C)[C@@H](Cc2ccc(OC)c(Br)c2)C(=O)N[C@@H]([C@@H](C)CC)C(=O)O[C@H](C)[C@H](NC(=O)[C@@H](NC(=O)[C@@H](COS(=O)(=O)O)OC)C(C)C)C(=O)N[C@@H](CCCCN)C(=O)N[C@H]2CC[C@@H](O)N1C2=O",
    "Ratio IC50": 19
  },
  {
    "compound": "CC[C@@H](C)[C@H]1C(=O)N(C)[C@@H](Cc2ccc(OC)c(Br)c2)C(=O)N[C@@H]([C@@H](C)CC)C(=O)O[C@H](C)[C@H](NC(=O)[C@H](NC(=O)[C@@H](COS(=O)(=O)O)OC)C(C)C)C(=O)N[C@@H](CCCNC(=N)N)C(=O)N[C@H]2CC[C@@H](O)N1C2=O",
    "Ratio IC50": "10 to 66"
  },
  {
    "compound": "CC[C@@H](C)[C@H]1C(=O)N(C)[C@@H](Cc2ccc(OC)c(Br)c2)C(=O)N[C@@H]([C@@H](C)CC)C(=O)O[C@H](C)[C@H](NC(=O)[C@H](NC(=O)[C@H](O)COS(=O)(=O)O)C(C)C)C(=O)N[C@@H](CCCCN)C(=O)N[C@H]2CC[C@@H](O)N1C2=O",
    "Ratio IC50": "10 to 66"
  },
  {
    "compound": "CC[C@@H](C)[C@H]1C(=O)N(C)[C@@H](Cc2ccc(OC)c(Br)c2)C(=O)N[C@@H]([C@@H](C)CC)C(=O)O[C@H](C)[C@H](NC(=O)[C@@H](NC(=O)[C@@H](COS(=O)(=O)O)OC)[C@@H](C)CC)C(=O)N[C@@H](CCCCN)C(=O)N[C@H]2CC[C@@H](O)N1C2=O ({Propanoyl(2R-OMe,3-OSO3H)}-ITK[Ahp(3S,6R)alloIle][NMeTyr(3-Br,OMe)]I; ester 2-C)",
    "Ratio IC50": "10 to 66"
  },
  {
    "compound": "CC[C@@H](C)[C@H]1C(=O)N(C)[C@@H](Cc2ccc(OC)c(Br)c2)C(=O)N[C@@H]([C@@H](C)CC)C(=O)O[C@H](C)[C@H](NC(=O)[C@H](NC(=O)[C@@H](COS(=O)(=O)O)OC)C(C)C)C(=O)N[C@@H](CCCCN)C(=O)N[C@H]2CC[C@@H](O)N1C2=O",
    "Ratio IC50": "10 to 66"
  }
]

----------
System: NCI-H460
Test: Antiproliferative activity against human NCI-H460 cells up to 3 uM after 72 hrs by MTT assay
Assay type: functional, cell-based
Calls of active or inactive are those of the source. The rule behind the calls is not given here. *1 amine or outer side, *2 acyl side, *3 side chain or, on linkers, in order; H or OH if unused. Where a SMILES comes first, the peptide text is derived from it. Bridges are numbered along the chain shown (N, C = ends). [ ]: non-standard residue; d: D form. The star is where a group is joined. Ahp(3S,6R)alloIle = CC[C@@H](C)[C@@H](C(=O)[*:2])N1C(=O)[C@@H](N[*:1])CC[C@H]1O; Propanoyl(2R-OMe,3-OSO3H) = CO[C@H](COS(=O)(=O)O)C(=O)*; NMeTyr(3-Br,OMe) = CN[C@@H](Cc1ccc(OC)c(Br)c1)C(=O)O; Cit = NC(=O)NCCC[C@H](N)C(=O)O; Butyryl = CCCC(=O)*
Labels: y for active, n for inactive

[
  {
    "compound": "CCCC(=O)N[C@H](CCC(N)=O)C(=O)N[C@@H]1C(=O)N[C@@H](CCCNC(N)=O)C(=O)N[C@H]2CC[C@@H](O)N(C2=O)[C@@H]([C@H](C)CC)C(=O)N(C)[C@@H](Cc2ccc(OC)c(Br)c2)C(=O)N[C@@H](C(C)C)C(=O)O[C@@H]1C (Butyryl-[dQ]T[Cit][Ahp(3S,6R)alloIle][NMeTyr(3-Br,OMe)]V; ester 2-C)",
    "cat": "y"
  },
  {
    "compound": "CC[C@@H](C)[C@H]1C(=O)N(C)[C@@H](Cc2ccc(OC)c(Br)c2)C(=O)N[C@@H]([C@@H](C)CC)C(=O)O[C@H](C)[C@H](NC(=O)[C@H](NC(=O)[C@@H](COS(=O)(=O)O)OC)C(C)C)C(=O)N[C@@H](CCCCN)C(=O)N[C@H]2CC[C@@H](O)N1C2=O",
    "cat": "n"
  },
  {
    "compound": "CC[C@@H](C)[C@H]1C(=O)N(C)[C@@H](Cc2ccc(OC)c(Br)c2)C(=O)N[C@@H]([C@@H](C)CC)C(=O)O[C@H](C)[C@H](NC(=O)[C@@H](NC(=O)[C@@H](COS(=O)(=O)O)OC)[C@@H](C)CC)C(=O)N[C@@H](CCCCN)C(=O)N[C@H]2CC[C@@H](O)N1C2=O ({Propanoyl(2R-OMe,3-OSO3H)}-ITK[Ahp(3S,6R)alloIle][NMeTyr(3-Br,OMe)]I; ester 2-C)",
    "cat": "n"
  },
  {
    "compound": "CC[C@@H](C)[C@H]1C(=O)N(C)[C@@H](Cc2ccc(OC)c(Br)c2)C(=O)N[C@@H]([C@@H](C)CC)C(=O)O[C@H](C)[C@H](NC(=O)[C@H](NC(=O)[C@H](O)COS(=O)(=O)O)C(C)C)C(=O)N[C@@H](CCCCN)C(=O)N[C@H]2CC[C@@H](O)N1C2=O",
    "cat": "n"
  },
  {
    "compound": "CC[C@@H](C)[C@H]1C(=O)N(C)[C@@H](Cc2ccc(OC)c(Br)c2)C(=O)N[C@@H]([C@@H](C)CC)C(=O)O[C@H](C)[C@H](NC(=O)[C@@H](NC(=O)[C@@H](COS(=O)(=O)O)OC)C(C)C)C(=O)N[C@@H](CCCCN)C(=O)N[C@H]2CC[C@@H](O)N1C2=O",
    "cat": "n"
  },
  {
    "compound": "CC[C@@H](C)[C@H]1C(=O)N(C)[C@@H](Cc2ccc(OC)c(Br)c2)C(=O)N[C@@H]([C@@H](C)CC)C(=O)O[C@H](C)[C@H](NC(=O)[C@H](NC(=O)[C@@H](COS(=O)(=O)O)OC)C(C)C)C(=O)N[C@@H](CCCNC(=N)N)C(=O)N[C@H]2CC[C@@H](O)N1C2=O",
    "cat": "n"
  }
]
